# Test System: Nitric oxide synthase, inducible (Mus musculus, UniProt P29477)
# Sequence (P29477 whole entry): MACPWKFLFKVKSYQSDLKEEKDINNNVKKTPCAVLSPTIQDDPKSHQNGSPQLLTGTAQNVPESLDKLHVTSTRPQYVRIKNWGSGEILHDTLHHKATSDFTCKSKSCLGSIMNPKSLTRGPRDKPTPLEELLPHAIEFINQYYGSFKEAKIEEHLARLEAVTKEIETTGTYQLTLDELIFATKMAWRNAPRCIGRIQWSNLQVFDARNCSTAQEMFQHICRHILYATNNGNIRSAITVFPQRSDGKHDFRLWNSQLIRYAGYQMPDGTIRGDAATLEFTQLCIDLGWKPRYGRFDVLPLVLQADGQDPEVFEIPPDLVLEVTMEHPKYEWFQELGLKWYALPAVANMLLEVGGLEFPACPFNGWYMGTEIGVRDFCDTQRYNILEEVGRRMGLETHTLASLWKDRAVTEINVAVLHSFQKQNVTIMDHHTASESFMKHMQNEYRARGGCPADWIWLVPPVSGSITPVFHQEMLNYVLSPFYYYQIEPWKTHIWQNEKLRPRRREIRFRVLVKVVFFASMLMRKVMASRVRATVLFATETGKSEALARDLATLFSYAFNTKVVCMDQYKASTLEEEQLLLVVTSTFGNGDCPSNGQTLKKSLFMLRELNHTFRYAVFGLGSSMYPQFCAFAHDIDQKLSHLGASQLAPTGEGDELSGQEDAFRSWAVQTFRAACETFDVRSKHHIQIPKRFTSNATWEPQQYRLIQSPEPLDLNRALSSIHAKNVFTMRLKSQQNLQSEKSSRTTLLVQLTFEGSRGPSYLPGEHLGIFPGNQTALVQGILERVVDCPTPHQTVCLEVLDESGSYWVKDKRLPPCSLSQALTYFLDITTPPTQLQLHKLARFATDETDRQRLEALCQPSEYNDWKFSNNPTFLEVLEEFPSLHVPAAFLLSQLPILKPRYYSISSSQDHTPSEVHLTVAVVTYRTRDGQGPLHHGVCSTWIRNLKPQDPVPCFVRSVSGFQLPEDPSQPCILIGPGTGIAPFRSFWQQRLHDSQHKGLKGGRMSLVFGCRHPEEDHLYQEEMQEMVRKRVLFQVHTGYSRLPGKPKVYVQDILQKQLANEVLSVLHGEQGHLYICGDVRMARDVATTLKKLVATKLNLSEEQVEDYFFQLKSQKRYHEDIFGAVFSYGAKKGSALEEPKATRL
# Assay Name: Inhibition of iNOS in LPS-stimulated mouse RAW264.7 cells using L-Arginine substrate incubated for 2 hrs by fluorescence spectrometry
pIC50 values by entry
Just so you know, pIC50 here is -log10 of the concentration in molar units; reply with that number alone.

Known results for molecules:
COc1ccc(C(=O)N2N=C(c3ccc(OC)c4c3OC(C)(C)C=C4)CC2c2cc(OC)c(OC)c(OC)c2)cc1 (centres undefined)	4.61
COc1ccc(C2=NN(C(C)=O)C(c3cc(OC)c(OC)c(OC)c3)C2)c2c1C=CC(C)(C)O2 (centres undefined)	5.14
COc1ccc2c(c1)c(CC(=O)O)c(C)n2C(=O)c1ccc(Cl)cc1	5.35

Okay, now this molecule:
Which pIC50 is listed for COc1ccc(C2=NN(C(=O)CCl)C(c3cc(OC)c(OC)c(OC)c3)C2)c2c1C=CC(C)(C)O2 (centres undefined) ?
5.60
